- System: Vero E6 infected with SARS-CoV-2
- ASSAY TEXT: inhibition of SARS-CoV-2 cytopathic effect; higher = more antiviral protection, active = above 15
- REPORTED CONDITIONS: 1 nM; 48 h
TEST READOUT: inhibition of SARS-CoV-2 cytopathic effect (%)

MOLECULE	READOUT NUMBER
Oc1c(Br)cc(Br)c2cccnc12 [broxyquinoline]	-1.46
O=[N+]([O-])C(Br)(CO)CO [bronopol]	-0.93
COc1cc(/C=C/C(=O)CC(=O)/C=C/c2ccc(O)c(OC)c2)ccc1O [curcumin]	-1.79

----------
- Tested on: Vero E6 infected with SARS-CoV-2
- ASSAY TEXT: inhibition of SARS-CoV-2 cytopathic effect; higher = more antiviral protection, active = above 15
- REPORTED CONDITIONS: 1 nM; 48 h
TEST READOUT: inhibition of SARS-CoV-2 cytopathic effect (%)

MOLECULE	TARGET DESC	RESULT UNITS	READOUT NUMBER
COc1ccc(CCN)cc1OC	Vero E6 infected with SARS-CoV-2	%	0.49
C[C@@H]1CN(c2c(F)c(N)c3c(=O)c(C(=O)O)cn(C4CC4)c3c2F)C[C@H](C)N1	Vero E6 infected with SARS-CoV-2	%	2.08
NCCCCCC(O)(P(=O)(O)O)P(=O)(O)O	Vero E6 infected with SARS-CoV-2	%	0.84
CS(=O)(=O)c1ccc(-c2nnc(/C=C/c3nnc(-c4ccc(C#N)cc4)o3)n2-c2ccccc2Cl)nc1	Vero E6 infected with SARS-CoV-2	%	0.69
Cc1cc(/C=C/c2ccc3cc(N(C)C)ccc3[n+]2C)c(C)n1-c1ccccc1 [pyrvinium-pamoate]	Vero E6 infected with SARS-CoV-2	%	-1.06
CC[C@@H]([C@H](C)O)n1ncn(-c2ccc(N3CCN(c4ccc(OC[C@@H]5CO[C@@](Cn6cncn6)(c6ccc(F)cc6F)C5)cc4)CC3)cc2)c1=O	Vero E6 infected with SARS-CoV-2	%	0.11
COc1ccc(-c2cc(=O)c3c(O)cc(O[C@@H]4O[C@H](CO[C@@H]5O[C@@H](C)[C@H](O)[C@@H](O)[C@H]5O)[C@@H](O)[C@H](O)[C@H]4O)cc3o2)cc1O	Vero E6 infected with SARS-CoV-2	%	3.94
CCN(C)C(=O)Oc1cccc([C@H](C)N(C)C)c1	Vero E6 infected with SARS-CoV-2	%	-1.4
CC(NC(C)(C)C)C(=O)c1cccc(Cl)c1 (stereo not given)	Vero E6 infected with SARS-CoV-2	%	1.88
Fc1ccc(Cl)cc1-c1nc(Nc2ccncc2)c2nccnc2n1	Vero E6 infected with SARS-CoV-2	%	-0.85

----------
- Tested on: Vero E6 infected with SARS-CoV-2
- ASSAY TEXT: morphology score (similarity to uninfected cells); higher = more like uninfected cells
- REPORTED CONDITIONS: 24 h

COMPOUND	morphology score
CC(C)(NS(=O)(=O)c1ccc(Oc2ccc(F)cc2)cc1)C(=O)NO (10 µM)	0.193
O=C1c2c(O)cc(O)cc2O[C@H](c2ccc(O)c(O)c2)[C@H]1O [taxifolin] (10 µM)	0.187
CC(C)=CCC/C(C)=C/CC/C(C)=C/CC[C@]1(C)CCc2cc(O)cc(C)c2O1 [delta-tocotrienol] (10 µM)	0.0442

----------
Overview of recorded inhibition of SARS-CoV-2 cytopathic effect for various compounds
- Test system: Vero E6 infected with SARS-CoV-2
- ASSAY TEXT: inhibition of SARS-CoV-2 cytopathic effect; higher = more antiviral protection, active = above 15
- REPORTED CONDITIONS: 100 nM; 48 h
TEST READOUT: inhibition of SARS-CoV-2 cytopathic effect

COMPOUND	RESULT
C=C(C)CN1CC[C@]23c4c5ccc(O)c4O[C@H]2c2[nH]c4ccccc4c2C[C@@]3(O)C1C5	0.33% (inactive)
Cc1cnc(C(=O)NCCc2ccc(S(=O)(=O)NC(=O)NC3CCCCC3)cc2)cn1 [glipizide]	-0.68% (inactive)
CCCC(=O)C1CCN(c2ncnc3c2CN(C(=O)c2ccc(-c4ccccc4)cc2)CC3)CC1	2.34% (inactive)

----------
- Test system: Vero E6 infected with SARS-CoV-2
- ASSAY TEXT: morphology score (similarity to uninfected cells); higher = more like uninfected cells
- REPORTED CONDITIONS: 24 h
Assign class by morphology score: not lower than 0.1 means met; lower than 0.1 means not met.

COMPOUND	TARGET DESC	CATEGORY LABEL
CCc1ccc(C(=O)C(C)CN2CCCCC2)cc1 (configuration not stated) [eperisone] (10 µM)	Vero E6 infected with SARS-CoV-2	met
O=C(NCC(=O)N1CCCC1)Nc1ccc2cnccc2c1 (10 µM)	Vero E6 infected with SARS-CoV-2	met
CCn1c(=O)n(C2=C(CO)CN(CC3CCCCCCC3)CC2)c2ccccc21 [trap-101] (10 µM)	Vero E6 infected with SARS-CoV-2	not met
O=c1oc2ccccc2c(O)c1Cc1c(O)c2ccccc2oc1=O [dicoumarol] (10 µM)	Vero E6 infected with SARS-CoV-2	not met
Cc1cc(C(C#N)c2ccc(Cl)cc2)c(Cl)cc1NC(=O)c1cc(I)cc(I)c1O (configuration not stated) [closantel] (10 µM)	Vero E6 infected with SARS-CoV-2	met
NCCCCN(Cc1nc2ccccc2[nH]1)[C@H]1CCCc2cccnc21 (10 µM)	Vero E6 infected with SARS-CoV-2	not met
COc1cc2c(NC3CCN(C)CC3)nc(N3CCCN(C)CC3)nc2cc1OCCCN(C)C (10 µM)	Vero E6 infected with SARS-CoV-2	met

----------
- Tested on: Vero E6 infected with SARS-CoV-2
- ASSAY TEXT: inhibition of SARS-CoV-2 cytopathic effect; higher = more antiviral protection, active = above 15
- REPORTED CONDITIONS: 8.33 nM; 48 h
TEST READOUT: inhibition of SARS-CoV-2 cytopathic effect (%)

MOLECULE	TARGET DESC	RESULT UNITS	READOUT NUMBER
COc1ccc(CCNCc2ccc(OCc3ccc(Cl)nc3)c(OC)c2)cc1OC	Vero E6 infected with SARS-CoV-2	%	0.63
Cc1cnc(Nc2ccc(N3CCN(C)CC3)cc2)nc1Nc1cccc(S(=O)(=O)NC(C)(C)C)c1	Vero E6 infected with SARS-CoV-2	%	-0.73
C#C[C@]1(O)CC[C@H]2[C@@H]3CCC4=Cc5oncc5C[C@]4(C)[C@H]3CC[C@@]21C	Vero E6 infected with SARS-CoV-2	%	-0.9
CC=CC1=C(C(=O)O)N2C(=O)[C@@H](NC(=O)[C@H](N)c3ccc(O)cc3)[C@H]2SC1 (mixture of isomers)	Vero E6 infected with SARS-CoV-2	%	0.76
CS(=O)(=O)c1ccc(Cn2c3c(c4cc(F)cc(F)c42)CCCC3CC(=O)O)cc1 (stereo not given)	Vero E6 infected with SARS-CoV-2	%	-0.29

----------
- Test system: Vero E6 infected with SARS-CoV-2
- ASSAY TEXT: inhibition of SARS-CoV-2 cytopathic effect; higher = more antiviral protection, active = above 15
- REPORTED CONDITIONS: 833.33 nM; 48 h
TEST READOUT: inhibition of SARS-CoV-2 cytopathic effect (%)

MOLECULE	READOUT NUMBER
CCC(C)SSc1ncc[nH]1 (stereo not drawn)	2.44
C[C@H]1[C@H](C)CC[C@]2(C(=O)O)CC[C@]3(C)C(=CC[C@@H]4[C@@]5(C)C[C@@H](O)[C@H](O)C(C)(C)[C@@H]5CC[C@]43C)[C@H]12	-4.03
CN1[C@@H]2C[C@@H](OC(=O)[C@H](CO)c3ccccc3)C[C@H]1[C@@H]1O[C@@H]12	1.41
c1ccc(C(O[C@@H]2CCCN(CCc3ccc4c(c3)OCO4)C2)c2ccccc2)cc1	-1.42
O=C(O)COc1ccc(OCCNC[C@H](O)COc2ccccc2)cc1	0.26
C#CC1(OCC(O)CN2CCN(c3cccc(C(F)(F)F)c3)CC2)CCCCC1 (stereo not drawn)	3.5
CC1=C(CCC(=O)O)c2cc3[nH]c(cc4nc(cc5[nH]c(cc1n2)c(C)c5C(C)O)C(C)=C4C(C)O)c(C)c3CCC(=O)O (stereo not drawn)	-0.76
O=C(O)c1cc(O)c2c(Cl)cc(Cl)cc2n1	0.55
O=C1CCCC(=O)C1C(=O)c1ccc(C(F)(F)F)cc1[N+](=O)[O-]	0.01
COc1ccc(C2=N[C@@H](c3ccc(Cl)cc3)[C@@H](c3ccc(Cl)cc3)N2C(=O)N2CCNC(=O)C2)c(OC(C)C)c1	5.08
COc1ccc2nc3c(c(N)c2c1)CCCC3	4.86
O=C(O)Cc1ccc(OCc2ccccc2)c(Cl)c1	1.88
COc1cc2c(NC3CCN(CC4CCCCC4)CC3)nc(N3CCCN(C(C)C)CC3)nc2cc1OCCCN1CCCCC1	0.36
CC[C@H](C)[C@@H]1NC(=O)[C@H](Cc2ccc(O)cc2)NC(=O)[C@@H](N)CSSC[C@@H](C(=O)N2CCC[C@H]2C(=O)N[C@@H](CC(C)C)C(=O)NCC(N)=O)NC(=O)[C@H](CC(N)=O)NC(=O)[C@H](CCC(N)=O)NC1=O	0.66
O=C(O)c1ccc(NC(=O)[C@H](Cc2ccc(O)cc2)NC(=O)c2ccccc2)cc1 [bentiromide]	-0.68
CCn1c2ccccc2c2cc(CNC)ccc21	-0.75
O=C1C=Cc2cc(Br)ccc2C1=O	-1.56
CC(C(=O)O)c1cccc(C(=O)c2ccccc2)c1 (stereo not drawn)	-0.03

The reported measurements were obtained from the supplement of paper PMC13380429.
